- System: NCI-H3122
- experimentalDetails: relative viability (nuclei count vs DMSO), 5 days (fraction); higher = more cells survive
- statedConditions: first compound 1.265 µM
resultType: relative viability
# respond with the number and nothing more

Known results for molecules:
{"columns": ["molecule", "relative viability"],
 "data": [
  ["Cc1sc2c(c1C)C(c1ccc(Cl)cc1)=N[C@@H](CC(=O)OC(C)(C)C)c1nnc(C)n1-2 [JQ1] + CS(=O)(=O)CCNCc1ccc(-c2ccc3ncnc(Nc4ccc(OCc5cccc(F)c5)c(Cl)c4)c3c2)o1 [Lapatinib] (partner 2 µM)", 1.02],
  ["Cc1sc2c(c1C)C(c1ccc(Cl)cc1)=N[C@@H](CC(=O)OC(C)(C)C)c1nnc(C)n1-2 [JQ1] + CC(=O)c1c(C)c2cnc(Nc3ccc(N4CCNCC4)cn3)nc2n(C2CCCC2)c1=O [Palbociclib] (partner 0.5 µM)", 0.185]
]}

Could you share which relative viability value was measured for Cc1sc2c(c1C)C(c1ccc(Cl)cc1)=N[C@@H](CC(=O)OC(C)(C)C)c1nnc(C)n1-2 [JQ1] + Cc1cc(Nc2cc(N3CCN(C)CC3)nc(Sc3ccc(NC(=O)C4CC4)cc3)n2)n[nH]1 [Tozasertib] (partner 0.1 µM) ? 0.0696

Which value of relative viability has been reported for Cc1sc2c(c1C)C(c1ccc(Cl)cc1)=N[C@@H](CC(=O)OC(C)(C)C)c1nnc(C)n1-2 [JQ1] + N=C(N)NC(=N)NCCc1ccccc1 [Phenformin] (partner 250 µM) in the records? 0.313

Which value of relative viability has been reported for Cc1sc2c(c1C)C(c1ccc(Cl)cc1)=N[C@@H](CC(=O)OC(C)(C)C)c1nnc(C)n1-2 [JQ1] + O=C(CCCCCCC(=O)Nc1ccccc1)NO [Vorinostat] (partner 1 µM) in the records? 1.04

What does the data say about its relative viability? Entry: Cc1sc2c(c1C)C(c1ccc(Cl)cc1)=N[C@@H](CC(=O)OC(C)(C)C)c1nnc(C)n1-2 [JQ1] + CC(C)C[C@H](NC(=O)[C@H](Cc1ccccc1)NC(=O)c1cnccn1)B(O)O [Bortezomib] (partner 0.002 µM) 0.996

---

- Test system: NCI-H2170
- experimentalDetails: relative viability (nuclei count vs DMSO), 5 days (fraction); higher = more cells survive
- statedConditions: first compound 0.04 µM
Below, each entry is listed alongside its reported relative viability.
Write no unit; give the number alone.

{"columns": ["compound", "relative viability"],
 "data": [
  ["Cc1sc2c(c1C)C(c1ccc(Cl)cc1)=N[C@@H](CC(=O)OC(C)(C)C)c1nnc(C)n1-2 [JQ1] + CCNC(=O)c1noc(-c2cc(C(C)C)c(O)cc2O)c1-c1ccc(CN2CCOCC2)cc1 [Luminespib] (partner 0.01 µM)", 0.743]
]}

# relative viability lookup, item Cc1sc2c(c1C)C(c1ccc(Cl)cc1)=N[C@@H](CC(=O)OC(C)(C)C)c1nnc(C)n1-2 [JQ1] + Nc1ncn([C@H]2C[C@H](O)[C@@H](CO)O2)c(=O)n1 [Decitabine] (partner 2 µM) 0.415

Would you kindly share the measured relative viability for Cc1sc2c(c1C)C(c1ccc(Cl)cc1)=N[C@@H](CC(=O)OC(C)(C)C)c1nnc(C)n1-2 [JQ1] + CS(=O)(=O)CCNCc1ccc(-c2ccc3ncnc(Nc4ccc(OCc5cccc(F)c5)c(Cl)c4)c3c2)o1 [Lapatinib] (partner 2 µM) ? 0.258

Using the record for Cc1sc2c(c1C)C(c1ccc(Cl)cc1)=N[C@@H](CC(=O)OC(C)(C)C)c1nnc(C)n1-2 [JQ1] + C[C@@H](Oc1cc(-c2cnn(C3CCNCC3)c2)cnc1N)c1c(Cl)ccc(F)c1Cl [Crizotinib] (partner 1 µM) , report its relative viability. 0.997

---

- Tested on: LOU-NH91
- experimentalDetails: relative viability (nuclei count vs DMSO), 5 days (fraction); higher = more cells survive
- statedConditions: first compound 0.05 µM
resultType: relative viability
// keep it numeric: no unit symbol after the value

{"columns": ["compound", "measuredOn", "resultType", "reported"],
 "data": [
  ["COc1cc2nccc(Oc3ccc(NC(=O)Nc4cc(C)on4)c(Cl)c3)c2cc1OC [Tivozanib] + Cc1cc(Nc2cc(N3CCN(C)CC3)nc(Sc3ccc(NC(=O)C4CC4)cc3)n2)n[nH]1 [Tozasertib] (partner 0.1 µM)", "LOU-NH91", "relative viability", 0.775]
]}

Give the measured relative viability of COc1cc2nccc(Oc3ccc(NC(=O)Nc4cc(C)on4)c(Cl)c3)c2cc1OC [Tivozanib] + CC(C)C[C@H](NC(=O)[C@H](Cc1ccccc1)NC(=O)c1cnccn1)B(O)O [Bortezomib] (partner 0.002 µM) . 0.722

---

- System: NCI-H2405
- experimentalDetails: relative viability (nuclei count vs DMSO), 5 days (fraction); higher = more cells survive
- statedConditions: first compound 0.02 µM
resultType: relative viability

Given the entry CC(=O)O[C@@]12CO[C@@H]1C[C@H](O)[C@@]1(C)C(=O)[C@H](O)C3=C(C)[C@@H](OC(=O)[C@H](O)[C@@H](NC(=O)OC(C)(C)C)c4ccccc4)C[C@@](O)([C@@H](OC(=O)c4ccccc4)[C@H]21)C3(C)C [Docetaxel] + CCNC(=O)c1noc(-c2cc(C(C)C)c(O)cc2O)c1-c1ccc(CN2CCOCC2)cc1 [Luminespib] (partner 0.01 µM) , report its measured relative viability. 0.22

---

- Tested on: A-427
- experimentalDetails: relative viability (nuclei count vs DMSO), 5 days (fraction); higher = more cells survive
- statedConditions: first compound 0.0002 µM
resultType: relative viability
Please give the numeric answer without any surrounding text.

{"columns": ["compound", "relative viability"],
 "data": [
  ["CC(=O)O[C@@]12CO[C@@H]1C[C@H](O)[C@@]1(C)C(=O)[C@H](O)C3=C(C)[C@@H](OC(=O)[C@H](O)[C@@H](NC(=O)OC(C)(C)C)c4ccccc4)C[C@@](O)([C@@H](OC(=O)c4ccccc4)[C@H]21)C3(C)C [Docetaxel] + N=C(N)NC(=N)NCCc1ccccc1 [Phenformin] (partner 250 µM)", 0.324]
]}

State its relative viability on A-427: CC(=O)O[C@@]12CO[C@@H]1C[C@H](O)[C@@]1(C)C(=O)[C@H](O)C3=C(C)[C@@H](OC(=O)[C@H](O)[C@@H](NC(=O)OC(C)(C)C)c4ccccc4)C[C@@](O)([C@@H](OC(=O)c4ccccc4)[C@H]21)C3(C)C [Docetaxel] + O=C(CCCCCCC(=O)Nc1ccccc1)NO [Vorinostat] (partner 1 µM) 0.824

Report relative viability for CC(=O)O[C@@]12CO[C@@H]1C[C@H](O)[C@@]1(C)C(=O)[C@H](O)C3=C(C)[C@@H](OC(=O)[C@H](O)[C@@H](NC(=O)OC(C)(C)C)c4ccccc4)C[C@@](O)([C@@H](OC(=O)c4ccccc4)[C@H]21)C3(C)C [Docetaxel] + CCNC(=O)c1noc(-c2cc(C(C)C)c(O)cc2O)c1-c1ccc(CN2CCOCC2)cc1 [Luminespib] (partner 0.01 µM) tested on A-427. 0.883

API: value(readout= relative viability, system= A-427, query= CC(=O)O[C@@]12CO[C@@H]1C[C@H](O)[C@@]1(C)C(=O)[C@H](O)C3=C(C)[C@@H](OC(=O)[C@H](O)[C@@H](NC(=O)OC(C)(C)C)c4ccccc4)C[C@@](O)([C@@H](OC(=O)c4ccccc4)[C@H]21)C3(C)C [Docetaxel] + COc1cccc2cc(-c3nc([C@H]4CC[C@H](C(=O)O)CC4)n4ncnc(N)c34)[nH]c12 [OSI-027] (partner 0.5 µM) ) 0.465

# returns recorded relative viability (system: A-427) for CC(=O)O[C@@]12CO[C@@H]1C[C@H](O)[C@@]1(C)C(=O)[C@H](O)C3=C(C)[C@@H](OC(=O)[C@H](O)[C@@H](NC(=O)OC(C)(C)C)c4ccccc4)C[C@@](O)([C@@H](OC(=O)c4ccccc4)[C@H]21)C3(C)C [Docetaxel] + Nc1nc2[nH]cc(CCc3ccc(C(=O)N[C@@H](CCC(=O)O)C(=O)O)cc3)c2c(=O)[nH]1 [Pemetrexed] (partner 0.2 µM) 0.886

---

Measured relative viability, listed per entry for reference.
- Tested on: NCI-H1666
- experimentalDetails: relative viability (nuclei count vs DMSO), 5 days (fraction); higher = more cells survive
- statedConditions: first compound 1.265 µM

Need relative viability, item Cc1sc2c(c1C)C(c1ccc(Cl)cc1)=N[C@@H](CC(=O)OC(C)(C)C)c1nnc(C)n1-2 [JQ1] + CS(=O)(=O)N1CCN(Cc2cc3nc(-c4cccc5[nH]ncc45)nc(N4CCOCC4)c3s2)CC1 [Pictilisib] (partner 1 µM) 0.274

Entry Cc1sc2c(c1C)C(c1ccc(Cl)cc1)=N[C@@H](CC(=O)OC(C)(C)C)c1nnc(C)n1-2 [JQ1] + CC(=O)Nc1cccc(-n2c(=O)n(C3CC3)c(=O)c3c(Nc4ccc(I)cc4F)n(C)c(=O)c(C)c32)c1 [Trametinib] (partner 0.02 µM) has what relative viability? 0.641

Given Cc1sc2c(c1C)C(c1ccc(Cl)cc1)=N[C@@H](CC(=O)OC(C)(C)C)c1nnc(C)n1-2 [JQ1] + COc1cc2c(Oc3ccc(NC(=O)C4(C(=O)Nc5ccc(F)cc5)CC4)cc3F)ccnc2cc1OCCCN1CCOCC1 [Foretinib] (partner 0.25 µM) , state its recorded relative viability. 0.634
